Measured half-life at 1 h, 1 µM accompanies every entry in the list below.
- experimentSummary: in vitro
- particulars: guinea pig, lung S9 fraction
- Description: Stability in guinea pig lung S9 fraction assessed as half-life at 1 uM incubated for 60 mins by LC-MS/MS analysis
propertyName: half-life at 1 h, 1 µM (h)

{"compound": "O=C(c1ccc(OCc2ccc(CNC[C@H](O)c3ccc(O)c4[nH]c(=O)ccc34)cc2)cc1)N1CCC(C(=O)OC2CN3CCC2CC3)(c2ccccc2)CC1 (single isomer, unassigned)", "experimentalValue": 3.6}
{"compound": "O=C(NCCCOc1cccc([C@@](O)(C(=O)OCC2CCN(Cc3ccccc3)CC2)c2ccccc2)c1)c1ccc(CNCC(O)c2ccc(O)c3[nH]c(=O)ccc23)cc1 (stereo partly drawn)", "experimentalValue": 4.67}
{"compound": "CCN1CCC(COC(=O)[C@](O)(c2ccccc2)c2cccc(OCCCNC(=O)c3cc(OC)c(CNC[C@H](O)c4ccc(O)c5[nH]c(=O)ccc45)cc3F)c2)CC1.O=C(O)C(F)(F)F.O=C(O)C(F)(F)F", "experimentalValue": 4.67}
{"compound": "COc1cc(C(=O)NCCCOc2cccc([C@](O)(C(=O)OCC3CCN(Cc4ccccc4)CC3)c3ccccc3)c2)c(F)cc1CNC[C@H](O)c1ccc(O)c2[nH]c(=O)ccc12", "experimentalValue": 0.433}
{"compound": "O=C(c1ccc(CCNC[C@H](O)c2ccc(O)c3[nH]c(=O)ccc23)cc1)N1CCC(c2cccc([C@](O)(C(=O)OCC3CCN(Cc4ccccc4)CC3)c3ccccc3)c2)CC1", "experimentalValue": 1.9}
{"compound": "O=C(NCc1ccc(-c2cccc([C@](O)(C(=O)OCC3CCN(Cc4ccccc4)CC3)c3ccccc3)c2)s1)c1ccc(CNC[C@H](O)c2ccc(O)c3[nH]c(=O)ccc23)cc1", "experimentalValue": 2.1}
{"compound": "COc1cc(C(=O)NCCCOc2cccc([C@](O)(C(=O)OCC3CCN(Cc4ccccc4)CC3)c3ccccc3)c2)ccc1CNC[C@H](O)c1ccc(O)c2[nH]c(=O)ccc12", "experimentalValue": 0.483}
{"compound": "O=C(NCCCOc1cccc([C@](O)(C(=O)OCC2CCN(Cc3ccccc3)CC2)c2ccccc2)c1)c1ccc(CNC[C@H](O)c2ccc(O)c3[nH]c(=O)ccc23)cc1", "experimentalValue": 0.35}

====

- experimentSummary: in vitro
- particulars: human, hepatocytes, CLH
- Description: Metabolic stability in human hepatocytes assessed as clearance measured per 10^6 cells at 1 uM incubated for 90 mins by LC-MS/MS analysis

{"compound": "O=C(NCCCCNC[C@H](O)c1ccc(O)c2[nH]c(=O)ccc12)c1ccc(CNC2(C(=O)OCC3CCN(Cc4ccccc4)CC3)CCc3ccccc32)s1 (mixture of isomers; 32)", "hepatocyte CLint at 1.5 h, 1 µM": "13 µL/min/1e6 cells"}

====

- experimentSummary: Drug concentration in male albino Dunkin-Hartley guinea pig lung at 50 nmol/kg, IT(Intratracheal) measured after 24 hrs
- particulars: inhaled or intranasal

{"smilesRepr": "O=C(NCCCOc1cccc([C@](O)(C(=O)OCC2CCN(Cc3ccccc3)CC2)c2ccccc2)c1)c1ccc(CNC[C@H](O)c2ccc(O)c3[nH]c(=O)ccc23)cc1", "unitInfo": "ng/g", "concentration at 24 h": 1170}

====

- experimentSummary: in vitro
- particulars: human, lung S9 fraction
- Description: Stability in human lung S9 fraction assessed as half-life at 1 uM incubated for 60 mins by LC-MS/MS analysis

{"compound": "O=C(NCCCOc1cccc([C@@](O)(C(=O)OCC2CCN(Cc3ccccc3)CC2)c2ccccc2)c1)c1ccc(CNCC(O)c2ccc(O)c3[nH]c(=O)ccc23)cc1 (stereo partly drawn)", "unitInfo": "h", "half-life at 1 h, 1 µM": 2.3}
{"compound": "O=C(NCc1ccc(-c2cccc([C@](O)(C(=O)OCC3CCN(Cc4ccccc4)CC3)c3ccccc3)c2)s1)c1ccc(CNC[C@H](O)c2ccc(O)c3[nH]c(=O)ccc23)cc1", "unitInfo": "h", "half-life at 1 h, 1 µM": 1.47}
{"compound": "O=C(NCCCOc1cccc([C@](O)(C(=O)OCC2CCN(Cc3ccccc3)CC2)c2ccccc2)c1)c1ccc(CNC[C@H](O)c2ccc(O)c3[nH]c(=O)ccc23)cc1", "unitInfo": "h", "half-life at 1 h, 1 µM": 3.22}

====

- experimentSummary: Protein binding in guinea pig plasma at 5 uM incubated for 4 hrs by LC-MS/MS analysis
propertyName: fraction unbound at 4 h, 5 µM

{"compound": "O=C(NCCCOc1cccc([C@@](O)(C(=O)OCC2CCN(Cc3ccccc3)CC2)c2ccccc2)c1)c1ccc(CNCC(O)c2ccc(O)c3[nH]c(=O)ccc23)cc1 (stereo partly specified)", "experimentalValue": 0.01}

====

- experimentSummary: in vivo
- particulars: male, Dunkin-Hartley, guinea pig, inhaled or intranasal, 3 mM
- Description: Toxicity in male albino Dunkin-Hartley guinea pig model assessed as inhibition of carbachol-induced salivation at 3 mM, preadministered with compound for 10 mins via aerosol followed by anesthesia treatment 3 hrs post compound addition and further treated with carbachol and measured every 5 mins for 4 times

{"smilesRepr": "CN1CCC[C@@H](OC(=O)[C@](O)(c2ccccc2)c2cccc(OCCCNC(=O)c3ccc(CNC[C@H](O)c4ccc(O)c5[nH]c(=O)ccc45)cc3)c2)C1", "inhibition at 3.167 h, 3000 µM": "43%"}

====

- measuredTarget: Muscarinic acetylcholine receptor M3 (Homo sapiens, UniProt P20309)
- Sequence (P20309 whole entry): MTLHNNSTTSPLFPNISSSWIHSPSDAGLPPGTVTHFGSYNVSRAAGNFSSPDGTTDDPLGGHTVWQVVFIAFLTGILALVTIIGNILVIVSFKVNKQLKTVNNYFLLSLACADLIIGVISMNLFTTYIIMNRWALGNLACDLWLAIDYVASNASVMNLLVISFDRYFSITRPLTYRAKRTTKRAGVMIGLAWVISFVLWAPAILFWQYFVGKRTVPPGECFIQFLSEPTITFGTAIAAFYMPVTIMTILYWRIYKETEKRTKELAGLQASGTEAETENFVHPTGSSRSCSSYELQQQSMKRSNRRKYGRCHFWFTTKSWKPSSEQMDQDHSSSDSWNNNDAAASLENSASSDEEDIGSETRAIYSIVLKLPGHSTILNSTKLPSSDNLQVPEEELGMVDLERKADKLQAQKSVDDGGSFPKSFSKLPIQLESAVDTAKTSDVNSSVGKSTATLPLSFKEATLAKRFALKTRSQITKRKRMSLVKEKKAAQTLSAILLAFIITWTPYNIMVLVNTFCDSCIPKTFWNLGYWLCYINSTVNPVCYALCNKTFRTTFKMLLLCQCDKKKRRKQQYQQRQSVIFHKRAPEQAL
Exam item: assign condition met to entries whose Ki is below 1000 pM and condition not met to entries at or above 1000 pM. Note that a value of exactly 1000 pM receives condition not met.

{"compound": "O=C(NCCCCNC[C@H](O)c1ccc(O)c2[nH]c(=O)ccc12)c1ccc(C(=O)NC2(C(=O)O[C@H]3CN4CCC3CC4)CCc3ccccc32)cc1 (single isomer, unassigned)", "label": "condition not met"}
{"compound": "O=C(NCCCNC[C@H](O)c1ccc(O)c2[nH]c(=O)ccc12)c1ccc(COc2cccc([C@](O)(C(=O)OCC3CCN(Cc4ccccc4)CC3)c3ccccc3)c2)cc1", "label": "condition met"}
{"compound": "O=C(NCCCCNC[C@H](O)c1ccc(O)c2[nH]c(=O)ccc12)c1ccc(CNC2(C(=O)OCC3CCN(Cc4ccccc4)CC3)CCc3ccccc32)s1 (mixture of isomers; 32)", "label": "condition not met"}
{"compound": "COc1cc(C(=O)NCCCOc2cccc([C@](O)(C(=O)OCC3CCN(Cc4ccccc4)CC3)c3ccccc3)c2)ccc1CNC[C@H](O)c1ccc(O)c2[nH]c(=O)ccc12", "label": "condition met"}
{"compound": "CN1CCC(COC(=O)[C@@](O)(c2ccccc2)c2cccc(-c3ccc(CNC(=O)c4ccc(CNC[C@H](O)c5ccc(O)c6[nH]c(=O)ccc56)cc4)s3)c2)CC1", "label": "condition met"}
{"compound": "O=C(NCCCOc1cccc([C@](O)(C(=O)OCC2CCN(Cc3ccccc3)CC2)c2ccccc2)c1)c1ccc(CNC[C@H](O)c2ccc(O)c3[nH]c(=O)ccc23)cc1", "label": "condition met"}
{"compound": "O=C(N[C@@H](c1ccccc1)c1cccc(OCc2ccc(C(=O)NCCCNC[C@H](O)c3ccc(O)c4[nH]c(=O)ccc34)cc2)c1)O[C@@H]1CN2CCC1CC2", "label": "condition met"}
{"compound": "O=C(NCCCCNC[C@H](O)c1ccc(O)c2[nH]c(=O)ccc12)c1ccc(C(=O)N2CCC(C(=O)O[C@H]3CN4CCC3CC4)(c3ccccc3)CC2)cc1", "label": "condition not met"}
{"compound": "CN1CCC(COC(=O)[C@](O)(c2ccccc2)c2cccc(-c3ccc(CNC(=O)c4ccc(CNC[C@H](O)c5ccc(O)c6[nH]c(=O)ccc56)cc4)s3)c2)CC1", "label": "condition not met"}
{"compound": "COc1cc(C(=O)N2CCC(c3cccc([C@](O)(C(=O)OCC4CCN(Cc5ccccc5)CC4)c4ccccc4)c3)CC2)ccc1CNC[C@H](O)c1ccc(O)c2[nH]c(=O)ccc12", "label": "condition met"}
{"compound": "COc1cc(C(=O)NCCCOc2cccc([C@](O)(C(=O)OCC3CCN(CC4CC4)CC3)c3ccccc3)c2)c(F)cc1CNC[C@H](O)c1ccc(O)c2[nH]c(=O)ccc12.O=CO.O=CO", "label": "condition met"}

====

This section lists pIC50 readings for Sodium channel protein type 5 subunit alpha (Homo sapiens).
pIC50: −log10 of the molar value.

{"smilesRepr": "CN1CCC[C@@H](OC(=O)[C@](O)(c2ccccc2)c2cccc(OCCCNC(=O)c3ccc(CNC[C@H](O)c4ccc(O)c5[nH]c(=O)ccc45)cc3)c2)C1", "resultComparator": "=", "pIC50": 3.51}
{"smilesRepr": "O=C(NCCCOc1cccc([C@](O)(C(=O)O)c2ccccc2)c1)c1ccc(CNC[C@H](O)c2ccc(O)c3[nH]c(=O)ccc23)cc1", "resultComparator": "<", "pIC50": 3.82}

====

- experimentSummary: in vitro
- particulars: human, hepatocytes
propertyName: hepatocyte CLint at 1.5 h, 1 µM (µL/min/1e6 cells)

{"smilesRepr": "COc1cc(CNC[C@H](O)c2ccc(O)c3[nH]c(=O)ccc23)c(Cl)cc1C(=O)NCCCOc1cccc([C@](O)(C(=O)O[C@@H]2CCCN(C)C2)c2ccccc2)c1", "experimentalValue": 7}
{"smilesRepr": "O=C(NCCCOc1cccc([C@](O)(C(=O)OC[C@@H]2CCN(Cc3ccccc3)C2)c2ccccc2)c1)c1ccc(CNC[C@H](O)c2ccc(O)c3[nH]c(=O)ccc23)cc1", "experimentalValue": 5}
{"smilesRepr": "CCN1CCC(COC(=O)[C@](O)(c2ccccc2)c2cccc(OCCCNC(=O)c3cc(OC)c(CNC[C@H](O)c4ccc(O)c5[nH]c(=O)ccc45)cc3F)c2)CC1.O=C(O)C(F)(F)F.O=C(O)C(F)(F)F", "experimentalValue": 2}
